Source of measurements: PubChem BioAssay

test: SK-BR-3 cell growth inhibitors, pilot screen, 24 h, human (AID 572); settings: SK-BR-3 viability, CellTiter-Glo luminescence, at 10 µM, stronger effect = lower value;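 note: compound exposure lasted between 18 and 24 h rather than exactly 24 h; 100% = carrier-treated control wells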
Exercise: for every item that follows, state its recorded viability.
One number for each entry, in %.

Look over these answered cases.
COc1ccccc1-c1coc2c(CN3CCN(CCO)CC3)c(O)ccc2c1=O; 87.5
COc1cc2nc(N3CCN(C(=O)c4ccco4)CC3)nc(N)c2cc1OC; 53
COc1ccc2cc(C#N)c(N3CCN(Cc4nnnn4CCC(C)C)CC3)nc2c1; 89
C=C1[C@@H](C)C2[C@H](Cc3ccccc3)NC(=O)[C@]23OC(=O)CC[C@H](O)CCC[C@H](C)C/C=C/[C@H]3[C@@H]1O (stereo not given in full); 95
CC1Cc2ccccc2N1C(=O)c1cccnc1 (stereo not given); 121
C=C(C)COc1ccc(-c2nc(N)ncc2Oc2ccccc2OCC)c(O)c1; 79
c1ccc(-c2oc3ncnc(NCCN4CCOCC4)c3c2-c2ccccc2)cc1; 90
Cc1ccc(NC(=O)CC2C(=O)NC3CCCCC3N2C(=O)c2ccc(F)cc2)cc1C (stereo not given); 108

Your task in this section: give viability for each listed record.
1. CC1(C)CC(=O)C(C=Nc2ccncc2)=C(O)C1
2. CCC1CCCCN1c1nc(-c2ccncc2)nc2ccccc12 (stereo not given)

1: 96.5; 2: 76.5

* * *

assay: 384-well plate pilot, post-Golgi transport modulator project, inhibition of yeast transport mutant growth (AID 636); details: absorbance 615 nm, about 18 h, stronger effect = higher value
quantity-measured: inhibition (%)
One number for each entry, in %.

Look over these answered cases.
CC(=O)n1nc(-c2ccco2)nc1SCc1ccccc1; 1.54
Oc1ccc(C=Nc2cccc3ncccc23)c(O)c1; -2.93
CCc1nnc(NC(=O)CSc2nc(-c3ccc(OC)cc3)ns2)s1; -5.07

Your task in this section: give inhibition for each listed record.
1. CN(C)c1ccc(C(=O)OCC(=O)NC2CCCCC2)cc1
2. COCC(=O)Nc1c(C(=O)Nc2ccccc2OC)oc2ccccc12
3. Cn1c(=O)c2c(nc(Br)n2CCSc2nnnn2-c2ccccc2)n(C)c1=O

1. -5.6
2. -8.78
3. -4.59

* * *

assay: reducers of endogenous Her2 protein level, primary screen, SKBR3 breast tumor cells, AlphaScreen, ATP viability (AID 461); conditions: 18-24 h, measured here: SKBR3 viability, ATP luminescence, at 10 µM;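 note: percent of carrier control wells set as 100% viability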
Each record is given fulfilled if its reported viability is strictly below 90%. Records at or above 90% are given not fulfilled.

Below are worked cases with known answers.
CN(CC(O)COCc1cccs1)C1CCCCC1 (configuration not stated); not fulfilled
Cc1cccc2cc(C#N)c(NCCNC(=O)NC3CCCCC3)nc12; not fulfilled
CCN(CC)CCOC(=O)c1cccc(OC)c1; not fulfilled

Does the reported viability of COc1ccccc1C(=O)Nc1ccc(N2CCN(Cc3ccccc3)CC2)cc1 stay below 90%?
fulfilled

Thanks! And CCOc1ccc2oc(-c3ccccc3)c(C(=O)N3CCN(CCO)CC3)c2c1 ?
not fulfilled

Thanks! And COCCNC(=O)c1c(N)n(/N=C/c2cccs2)c2nc3ccccc3nc12 ?
not fulfilled

* * *

test: reversal of MRP1-mediated doxorubicin resistance, pilot screen, H69AR cells, doxorubicin co-treatment (AID 601); details: H69AR cells, CellTiter-Glo, 72 h; compound alone cytotoxicity; at 10 µM
quantity-measured: viability (%)
Give bare numbers, in %.

Look over these answered cases.
CCOC(=O)C1CCN(Cc2ccc(C(=O)OC)cc2)CC1; 87.4
N#CC1=C(N)OC2=C(C(=O)CCC2)C1CCc1ccccc1 (stereo unspecified); 103
CCOC(=O)C1CCN(c2cc(C)nc3cc(-c4cccc(F)c4)nn23)CC1; 90.4
CC(C)(C)c1ccc(OCC(=O)O)cc1; 104
CC(=O)N1CN(C2CCCC2)Cc2c1sc1c2CCCC1; 101

// next item, viability requested
// lookup viability for O=C(COc1ccc(Cl)cc1)Nc1ncccn1
107
